- assay summary: Example 8 pharmacokinetics assay for PKPD study (plasma, tumor, liver)
- Assay type: in vivo, BALB/c nude mice
- stated conditions: mouse, liver, po, 35 mg/kg, p.o., single dose; 12 h; read-out: Concentration in Liver (mean ± SEM)

compound | units symbol | concentration at 12 h
COC(=O)N[C@@H](C)CNc1nccc(-c2cn(C(C)C)nc2-c2cc(Cl)cc(NS(C)(=O)=O)c2F)n1 [Encorafenib, encorafenib, reference compound] | ng/g | 16

====

- assay summary: Pharmacokinetics after 21 days dosing in the efficacy study (plasma, tumor and brain concentrations; plasma AUC at steady state), Example 14
- Assay type: in vivo, female BALB/c nude mice
- stated conditions: mouse, plasma, po; 10 mg/kg p.o. BID x 21 days; 0.5 h; mean ± SEM

compound | concentration at 0.5 h, ng/mL
CCN(C)S(=O)(=O)Nc1ccc(F)c(Oc2ccc3ncn([C@H]4COC5(CCN(C6CC7(C6)CN(c6cc8c(cc6F)c(N6CCC(=O)NC6=O)nn8C)C7)CC5)C4)c(=O)c3c2)c1C#N [Compound 26] | 19300
